- System: RPMI-8226 leukemia
- assay.remarks: NCI-60 one-dose screen, 48 h
- condition.parameters: 10 µM
This is part of a sample that, as a whole, favours compounds with a hit. Of some 83,000 tested, about 20% had one in any assay. Activity calls are given as the source filed them. How the source made its calls: active means growth percent below 10; inactive means the rest.
Outcomes: 1 (yes) = active, 0 (no) = inactive

> print(dat)
                                   compound    group
1  COc1ccc(NC(=O)Cn2c(/C=C/c3ccc(N(C)C)cc3)nc3ccccc3c2=O)cc1   0 (no)
2  COc1ccc(-c2nc(S(=O)(=O)c3ccc(C)cc3)c(S(C)(=O)=O)o2)cc1  1 (yes)
3        O=C(CNc1nc(-c2ccccc2)cs1)Nc1ccccc1  1 (yes)
4  C=C1CCC2C3(C)COC(c4c(F)cccc4F)OC3CCC2(C)C1C/C=C1/C(=O)OCC1O (stereo not given)   0 (no)
5           O=C(Nc1nc2ccccc2s1)c1ccc(Br)cc1   0 (no)
